- ASSAY TARGET: dopaminergic D2 receptor (Homo sapiens)
- Sequence (P14416 1-414 isoform P14416-2): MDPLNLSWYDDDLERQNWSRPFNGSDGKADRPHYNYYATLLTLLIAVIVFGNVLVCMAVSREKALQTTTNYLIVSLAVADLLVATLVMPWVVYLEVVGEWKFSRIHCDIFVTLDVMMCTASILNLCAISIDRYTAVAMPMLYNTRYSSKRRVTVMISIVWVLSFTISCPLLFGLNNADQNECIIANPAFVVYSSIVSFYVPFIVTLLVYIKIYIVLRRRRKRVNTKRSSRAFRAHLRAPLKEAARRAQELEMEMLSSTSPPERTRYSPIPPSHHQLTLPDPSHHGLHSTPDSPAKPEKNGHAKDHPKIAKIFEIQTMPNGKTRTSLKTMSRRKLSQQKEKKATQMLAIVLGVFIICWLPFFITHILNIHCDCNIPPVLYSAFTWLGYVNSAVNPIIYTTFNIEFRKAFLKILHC
- ASSAY SUMMARY: Binding assay D2S (h), [3H]methyl-spiperone, HEK-293 cells
- Set-up: expressed in transfected cells; host or cells: HEK-293 cells
- CONDITION SET: read-out: D2 [%]
Examples of compounds with documented inhibition at 1 µM follow.
ENDPOINT LABEL: inhibition at 1 µM (%)

[
  {
    "STRUCTURE AS SMILES": "O=S(=O)(NCCCN1CCN(c2nsc3ccccc23)CC1)c1cc2ccccc2s1",
    "ENDPOINT LABEL": "inhibition at 1 µM",
    "MEASURED": 98
  },
  {
    "STRUCTURE AS SMILES": "O=S(=O)(NCCCN1CCC(c2noc3cc(F)ccc23)CC1)c1cc2cccnc2[nH]1",
    "ENDPOINT LABEL": "inhibition at 1 µM",
    "MEASURED": 99
  },
  {
    "STRUCTURE AS SMILES": "O=S(=O)(NCCCN1CCN(c2cccc3c2OCCO3)CC1)c1cccc(F)c1",
    "ENDPOINT LABEL": "inhibition at 1 µM",
    "MEASURED": 79
  },
  {
    "STRUCTURE AS SMILES": "O=S(=O)(NCCCCN1CCN(c2noc3ccccc23)CC1)c1cnc2ccccn12",
    "ENDPOINT LABEL": "inhibition at 1 µM",
    "MEASURED": 85
  },
  {
    "STRUCTURE AS SMILES": "O=S(=O)(NCCCCN1CCC(c2noc3cc(F)ccc23)CC1)c1ccc2cc(Cl)ccc2c1",
    "ENDPOINT LABEL": "inhibition at 1 µM",
    "MEASURED": 100
  },
  {
    "STRUCTURE AS SMILES": "O=S(=O)(NCCCN1CCN(c2cccc3c2OCCO3)CC1)c1ccc2c(c1)CCO2",
    "ENDPOINT LABEL": "inhibition at 1 µM",
    "MEASURED": 68
  },
  {
    "STRUCTURE AS SMILES": "O=S(=O)(NCCCCN1CCC(c2noc3cc(F)ccc23)CC1)c1cc2ccccc2o1",
    "ENDPOINT LABEL": "inhibition at 1 µM",
    "MEASURED": 98
  },
  {
    "STRUCTURE AS SMILES": "O=S(=O)(NCCCN1CCN(c2cccc3c2OCCO3)CC1)c1csc2ccccc12",
    "ENDPOINT LABEL": "inhibition at 1 µM",
    "MEASURED": 59
  },
  {
    "STRUCTURE AS SMILES": "O=S(=O)(NCCCCN1CCN(c2nsc3ccccc23)CC1)c1cccc(Cl)c1",
    "ENDPOINT LABEL": "inhibition at 1 µM",
    "MEASURED": 106
  },
  {
    "STRUCTURE AS SMILES": "Cc1c(S(=O)(=O)NCCCCN2CCC(c3noc4cc(F)ccc34)CC2)sc2ccc(F)cc12",
    "ENDPOINT LABEL": "inhibition at 1 µM",
    "MEASURED": 99
  },
  {
    "STRUCTURE AS SMILES": "Cc1c(S(=O)(=O)NCCCCN2CCN(c3cccc4[nH]c(=O)[nH]c34)CC2)sc2ccc(Cl)cc12",
    "ENDPOINT LABEL": "inhibition at 1 µM",
    "MEASURED": 64
  },
  {
    "STRUCTURE AS SMILES": "Cn1ccc2c(S(=O)(=O)NCCCN3CCC(c4noc5cc(F)ccc45)CC3)cccc21",
    "ENDPOINT LABEL": "inhibition at 1 µM",
    "MEASURED": 101
  },
  {
    "STRUCTURE AS SMILES": "O=S(=O)(NCCCCN1CCN(c2noc3ccccc23)CC1)c1ccc(Cl)c(Cl)c1",
    "ENDPOINT LABEL": "inhibition at 1 µM",
    "MEASURED": 98
  },
  {
    "STRUCTURE AS SMILES": "O=S(=O)(NCCCCN1CCC(c2noc3cc(F)ccc23)CC1)c1cc2ccc(Cl)cc2s1",
    "ENDPOINT LABEL": "inhibition at 1 µM",
    "MEASURED": 99
  },
  {
    "STRUCTURE AS SMILES": "Cc1[nH]c2ccc(Cl)cc2c1C1=CCN(CCNS(=O)(=O)c2ccc(Cl)cc2)CC1",
    "ENDPOINT LABEL": "inhibition at 1 µM",
    "MEASURED": 46
  },
  {
    "STRUCTURE AS SMILES": "O=S(=O)(NCCCCN1CCN(c2cccc3c2OCCO3)CC1)c1ccc(Cl)s1",
    "ENDPOINT LABEL": "inhibition at 1 µM",
    "MEASURED": 73
  },
  {
    "STRUCTURE AS SMILES": "O=S(=O)(NCCCN1CCN(c2cccc3c2OCCO3)CC1)c1ccc2cc(Cl)ccc2c1",
    "ENDPOINT LABEL": "inhibition at 1 µM",
    "MEASURED": 58
  },
  {
    "STRUCTURE AS SMILES": "Cc1[nH]c2ccc(Cl)cc2c1C1=CCN(CCNS(=O)(=O)c2cccc(F)c2)CC1",
    "ENDPOINT LABEL": "inhibition at 1 µM",
    "MEASURED": 15
  },
  {
    "STRUCTURE AS SMILES": "O=S(=O)(NCCCCN1CCN(c2cccc3[nH]ccc23)CC1)c1csc2ccccc12",
    "ENDPOINT LABEL": "inhibition at 1 µM",
    "MEASURED": 101
  },
  {
    "STRUCTURE AS SMILES": "O=S(=O)(NCCCCN1CCN(c2nsc3ccccc23)CC1)c1c[nH]c2ncccc12",
    "ENDPOINT LABEL": "inhibition at 1 µM",
    "MEASURED": 104
  },
  {
    "STRUCTURE AS SMILES": "O=S(=O)(NCCCCN1CCC(c2noc3cc(F)ccc23)CC1)c1ccsc1",
    "ENDPOINT LABEL": "inhibition at 1 µM",
    "MEASURED": 88
  },
  {
    "STRUCTURE AS SMILES": "Cc1[nH]c2ccc(Cl)cc2c1C1=CCN(CCCCNS(=O)(=O)c2ccc(F)cc2)CC1",
    "ENDPOINT LABEL": "inhibition at 1 µM",
    "MEASURED": 41
  },
  {
    "STRUCTURE AS SMILES": "Cc1[nH]c2ccc(Cl)cc2c1C1=CCN(CCCNS(=O)(=O)c2cccc(F)c2)CC1",
    "ENDPOINT LABEL": "inhibition at 1 µM",
    "MEASURED": 47
  },
  {
    "STRUCTURE AS SMILES": "N#Cc1ccc(S(=O)(=O)NCCCN2CCC(c3noc4cc(F)ccc34)CC2)cc1",
    "ENDPOINT LABEL": "inhibition at 1 µM",
    "MEASURED": 59
  },
  {
    "STRUCTURE AS SMILES": "O=S(=O)(NCCCCN1CCN(c2noc3ccccc23)CC1)c1cccc(C(F)(F)F)c1",
    "ENDPOINT LABEL": "inhibition at 1 µM",
    "MEASURED": 92
  },
  {
    "STRUCTURE AS SMILES": "O=c1[nH]c2cccc(N3CCN(CCCNS(=O)(=O)c4cccc(Cl)c4)CC3)c2[nH]1",
    "ENDPOINT LABEL": "inhibition at 1 µM",
    "MEASURED": 91
  },
  {
    "STRUCTURE AS SMILES": "Cc1cc(S(=O)(=O)NCCCCN2CCC(c3noc4cc(F)ccc34)CC2)c(C)s1",
    "ENDPOINT LABEL": "inhibition at 1 µM",
    "MEASURED": 84
  },
  {
    "STRUCTURE AS SMILES": "COc1cccc(S(=O)(=O)NCCCCN2CCN(c3cccc4c3OCCO4)CC2)c1",
    "ENDPOINT LABEL": "inhibition at 1 µM",
    "MEASURED": 72
  },
  {
    "STRUCTURE AS SMILES": "O=S(=O)(NCCCCN1CCN(c2noc3ccccc23)CC1)c1cc2ccc(Cl)cc2s1",
    "ENDPOINT LABEL": "inhibition at 1 µM",
    "MEASURED": 103
  },
  {
    "STRUCTURE AS SMILES": "O=S(=O)(NCCCN1CCN(c2nsc3ccccc23)CC1)c1cccc(F)c1",
    "ENDPOINT LABEL": "inhibition at 1 µM",
    "MEASURED": 99
  },
  {
    "STRUCTURE AS SMILES": "O=c1[nH]c2ccc(S(=O)(=O)NCCCCN3CCN(c4nsc5ccccc45)CC3)cc2o1",
    "ENDPOINT LABEL": "inhibition at 1 µM",
    "MEASURED": 96
  },
  {
    "STRUCTURE AS SMILES": "O=S(=O)(NCCCN1CCN(c2nsc3ccccc23)CC1)c1ccc(OC(F)(F)F)cc1",
    "ENDPOINT LABEL": "inhibition at 1 µM",
    "MEASURED": 93
  },
  {
    "STRUCTURE AS SMILES": "O=S(=O)(NCCCCN1CCN(c2cccc3[nH]ccc23)CC1)c1cccc(F)c1",
    "ENDPOINT LABEL": "inhibition at 1 µM",
    "MEASURED": 98
  }
]
